Would you mind telling me the reported melting point of each entry?

Endpoint output: melting point of `CCCNc1nc(-c2ccccc2)c(-c2ccc(=O)n(C(C)C)n2)s1` . Value?
165 to 166 °C

What does the record list as melting point for `COCCNCc1ccc(C(=O)Nc2nc(-c3ccccc3)c(-c3ccc(=O)n(C(C)C)n3)s2)cc1` ?
192 to 194 °C

Which melting point is listed for `CC(C)n1nc(-c2sc(C(N)=S)nc2-c2ccccc2)ccc1=O` ?
> 250 °C

Could you tell me which melting point is on file for `CCCn1nc(-c2sc(C(N)=O)nc2-c2ccccc2)ccc1=O` ?
201 to 202 °C

---

Recorded endpoint: melting point

Look up melting point: `CC(C)n1nc(-c2sc(NC(=O)Oc3ccccc3)nc2-c2ccccc2)ccc1=O`
205 to 207 °C

Please report the recorded melting point for `O=C(NCc1ccccn1)c1nc(-c2ccccc2)c(-c2ccc(=O)[nH]n2)s1` .
221 to 222.5 °C

Look up melting point: `CC(C)n1nc(-c2sc(N)nc2-c2ccccc2)ccc1=O`
> 250 °C

Would you kindly share the measured melting point for `CC(C)n1nc(-c2sc(NC(=O)c3ccc(I)cc3)nc2-c2ccccc2)ccc1=O` ?
253 to 254 °C

Suppose we examine the compound `CC(C)n1nc(-c2sc(NC(=O)c3ccc(CNCCO)cc3)nc2-c2ccccc2)ccc1=O` ; what melting point value has been reported?
111 to 113 °C

Dear colleague, I am looking for the recorded melting point of the following compound: `CC(C)n1nc(-c2sc(NC(=O)CNCCN(C)C)nc2-c2ccccc2)ccc1=O.Cl.Cl`
136 to 142 °C

Look up melting point: `CC(C)n1nc(-c2sc(C(=O)NCc3ccncc3)nc2-c2ccccc2)ccc1=O`
192 to 193 °C

Quick one: melting point for `CCCNC(=O)c1nc(-c2ccccc2)c(-c2ccc(=O)n(CC)n2)s1` ?
106.5 to 107.5 °C

---

For each entry below, report its melting point value.

Given the molecule `CC(C)n1nc(-c2sc(NC(=O)c3ccc(CN(C)C)cc3)nc2-c2ccccc2)ccc1=O` , what is its reported melting point?
246 to 248 °C

Report melting point for `CC(C)n1nc(-c2sc(NC3CCCCC3)nc2-c2ccccc2)ccc1=O` please.
149 to 151 °C

Please report the recorded melting point for `C=CCNc1nc(-c2ccccc2)c(-c2ccc(=O)n(CC=C)n2)s1` .
146 to 147 °C

Entry `CC(C)CC(=O)Nc1nc(-c2ccccc2)c(-c2ccc(=O)n(C(C)C)n2)s1` has what melting point?
198 to 199 °C

Please give the measured melting point for this molecule: `NC(=O)c1nc(-c2ccccc2)c(-c2ccc(=O)[nH]n2)s1`
> 250 °C

Fill blank: measured melting point of the molecule `CC(C)n1nc(-c2sc(C(=O)NCc3ccccn3)nc2-c2ccccc2)ccc1=O` is ____.
176.5 to 177.5 °C

---

Recorded endpoint: melting point

Report melting point for `CC(C)n1nc(-c2sc(NC(=O)C3CC3)nc2-c2ccccc2)ccc1=O` please.
226 to 227 °C

Item `O=C(NC1CC1)c1nc(-c2ccccc2)c(-c2ccc(=O)n(Cc3ccccc3)n2)s1` has what recorded melting point?
151 to 152.5 °C

Entry under review: `CCCCNC(=O)c1nc(-c2ccccc2)c(-c2ccc(=O)n(C(C)C)n2)s1` . Reported melting point?
147.5 to 148.5 °C

Entry `CC(C)n1nc(-c2sc(Nc3cccc4ccccc34)nc2-c2ccccc2)ccc1=O` : reported melting point = ?
239 to 240 °C

I have this compound here, `CCCNC(=O)c1nc(-c2ccccc2)c(-c2ccc(=O)[nH]n2)s1` , and I need its recorded melting point.
232 to 233 °C

Reported melting point for `CC(C)NC(=O)c1nc(-c2ccccc2)c(-c2ccc(=O)n(C(C)C)n2)s1` : what is it?
131 to 132.5 °C

Tell me the measured melting point of `CC(C)NCc1ccc(C(=O)Nc2nc(-c3ccccc3)c(-c3ccc(=O)n(C(C)C)n3)s2)cc1` , please.
139 to 141 °C

Record request: melting point value, item `CCCCCC(=O)Nc1nc(-c2ccccc2)c(-c2ccc(=O)n(C(C)C)n2)s1`
129 to 132 °C

Form field: reported melting point of `CC(C)n1nc(-c2sc(NCCN3CCOCC3)nc2-c2ccccc2)ccc1=O.Cl.Cl`
140 to 143 °C

melting point lookup needed for `CC(C)NC(=O)c1nc(-c2ccccc2)c(-c2ccc(=O)n(Cc3ccccc3)n2)s1` , thanks.
163.5 to 165 °C

Reported melting point for `CC(C)NC(=O)c1nc(-c2ccccc2)c(-c2ccc(=O)[nH]n2)s1` : what is it?
> 250 °C
